Biological target: Recombinant human Src (Homo sapiens)
Construct: made in house; host or cells: baculovirus-insect cell system
Sequence (P12931 whole entry): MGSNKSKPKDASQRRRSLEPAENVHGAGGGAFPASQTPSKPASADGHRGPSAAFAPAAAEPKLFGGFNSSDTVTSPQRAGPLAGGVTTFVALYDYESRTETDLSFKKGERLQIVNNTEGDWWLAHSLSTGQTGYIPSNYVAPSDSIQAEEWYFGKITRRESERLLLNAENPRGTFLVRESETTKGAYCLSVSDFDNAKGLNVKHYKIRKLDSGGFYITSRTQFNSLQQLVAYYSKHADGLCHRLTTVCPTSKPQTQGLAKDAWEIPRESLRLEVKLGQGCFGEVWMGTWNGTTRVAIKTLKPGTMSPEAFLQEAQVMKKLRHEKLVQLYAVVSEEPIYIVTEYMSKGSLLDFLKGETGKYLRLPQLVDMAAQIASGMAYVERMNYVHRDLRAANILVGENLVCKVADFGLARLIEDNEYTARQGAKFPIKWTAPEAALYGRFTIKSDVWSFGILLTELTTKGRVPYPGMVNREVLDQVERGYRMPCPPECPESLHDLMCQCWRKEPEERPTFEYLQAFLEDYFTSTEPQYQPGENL
Test: Src tyrosine kinase activity, poly E4Y / 32P-ATP phosphorylation assay
Assay type: biochemical
Details: Table 2, Formula I compounds; NI = no inhibition at 100 μg/mL
Endpoint label: IC50 (µM)

Reference set, count: 4
[
  {
    "Smiles text": "Cc1ccc(S(=O)(=O)Nc2cc(SCc3ccc(Cl)cc3)c([N+](=O)[O-])cc2NS(=O)(=O)c2ccc(C)cc2)cc1",
    "IC50, µM": 1
  },
  {
    "Smiles text": "Cc1ccc(S(=O)(=O)Nc2cc(Sc3ccc(O)cc3)c([N+](=O)[O-])cc2NS(=O)(=O)c2ccc(C)cc2)cc1",
    "IC50, µM": 5.5
  },
  {
    "Smiles text": "Cc1ccc(S(=O)(=O)Nc2cc(Sc3cccc(Cl)c3)c([N+](=O)[O-])cc2NS(=O)(=O)c2ccc(C)cc2)cc1",
    "IC50, µM": 1.6
  },
  {
    "Smiles text": "COc1cccc(Sc2cc(NS(=O)(=O)c3ccc(C)cc3)c(NS(=O)(=O)c3ccc(C)cc3)cc2[N+](=O)[O-])c1",
    "IC50, µM": 3.5
  }
]

1. Cc1ccc(S(=O)(=O)Nc2cc(-c3ccccc3)c([N+](=O)[O-])cc2NS(=O)(=O)c2ccc(C)cc2)cc1
2. Cc1ccc(S(=O)(=O)Nc2cc(SCc3ccccc3Cl)c([N+](=O)[O-])cc2NS(=O)(=O)c2ccc(C)cc2)cc1
IN: Could you point out whether the larger IC50 belongs to 1 or to 2 ? State the label of the item chosen.
OUT: 1

###

Molecular target: Recombinant Csk (Homo sapiens, UniProt P41240)
Experiment: Csk tyrosine kinase activity, poly E4Y / 32P-ATP phosphorylation assay
Format: biochemical
Conditions: Table 3, Formula II compounds; NI = no inhibition at 100 μg/mL
# reported IC50; entries follow

[
  {
    "Compound": "Cc1ccc(S(=O)(=O)Nc2ccc(N3CCN(S(=O)(=O)c4ccc(C)cc4)CC3)cc2NS(=O)(=O)c2ccc(C)cc2)cc1 [Compound 17e]",
    "Endpoint label": "IC50",
    "Val": "> 153 µM"
  },
  {
    "Compound": "Cc1ccc(S(=O)(=O)Nc2ccc(OCCCO)cc2NS(=O)(=O)c2ccc(C)cc2)cc1 [Compound 12bb]",
    "Endpoint label": "IC50",
    "Val": "> 204 µM"
  },
  {
    "Compound": "Cc1ccc(S(=O)(=O)Nc2ccc(N3CCOCC3)cc2NS(=O)(=O)c2ccc(C)cc2)cc1 [Compound 17f]",
    "Endpoint label": "IC50",
    "Val": "> 199 µM"
  }
]

IN: Can you look up IC50 on Recombinant Csk (Homo sapiens, UniProt P41240) for Cc1ccc(S(=O)(=O)Nc2ccc(OCc3cccc(Cl)c3)cc2NS(=O)(=O)c2ccc(C)cc2)cc1 [Compound 15c] ?
OUT: > 180 µM

###

Target: Recombinant Csk (Homo sapiens)
Assay: Csk tyrosine kinase activity, poly E4Y / 32P-ATP phosphorylation assay
Format: biochemical
Details: Table 2, Formula I compounds; NI = no inhibition at 100 μg/mL
Endpoint label: IC50 (µM)

[
  {
    "Smiles text": "Cc1ccc(S(=O)(=O)Nc2cc(Sc3ccccc3)c([N+](=O)[O-])cc2NS(=O)(=O)c2ccc(C)cc2)cc1",
    "IC50 (µM)": 5.7
  }
]

P. Cc1ccc(S(=O)(=O)Nc2cc(Sc3ccccc3C(C)C)c([N+](=O)[O-])cc2NS(=O)(=O)c2ccc(C)cc2)cc1
Q. COc1ccc(Sc2cc(NS(=O)(=O)c3ccc(C)cc3)c(NS(=O)(=O)c3ccc(C)cc3)cc2[N+](=O)[O-])cc1
IN: Field: lower IC50 | Options: P / Q Lab note: record the label of whichever item you select.
OUT: P
(P: 5.7 µM, Q: 10.8 µM)
